Biological target: Ghrelin/GHRP/GHS Receptor (Rattus norvegicus)
Assay: In vivo GH release in rat after i.v. peptide (serum GH by RIA)
Conditions: Table 3; peptide alone 10 μg i.v.
Where no end group is shown, it is not given here. [ ]: non-standard residue; d: D form. d2Nal = N[C@H](Cc1ccc2ccccc2c1)C(=O)O
measured.endpoint: Unstimulated Basal GH release (ng/mL)

INSERT INTO assay_data (substance, scale_unit, value) VALUES
  ('DAla-DcyclohexylAla-Ala-Phe-DPhe-Nle-NH2', 'ng/mL', 250),
  ('[dA][d2Nal][dA][dW]FK-NH2 [9-DAla-DβNal-DAla-DTrp-Phe-Lys-NH2]', 'ng/mL', 244),
  ('[d2Nal]AW[dF]A-NH2 [1-DβNal-Ala-Trp-DPhe-Ala-NH2]', 'ng/mL', 654);

----------
Biological target: Ghrelin/GHRP/GHS Receptor (Rattus norvegicus, UniProt O08725)
Sequence (O08725 whole entry): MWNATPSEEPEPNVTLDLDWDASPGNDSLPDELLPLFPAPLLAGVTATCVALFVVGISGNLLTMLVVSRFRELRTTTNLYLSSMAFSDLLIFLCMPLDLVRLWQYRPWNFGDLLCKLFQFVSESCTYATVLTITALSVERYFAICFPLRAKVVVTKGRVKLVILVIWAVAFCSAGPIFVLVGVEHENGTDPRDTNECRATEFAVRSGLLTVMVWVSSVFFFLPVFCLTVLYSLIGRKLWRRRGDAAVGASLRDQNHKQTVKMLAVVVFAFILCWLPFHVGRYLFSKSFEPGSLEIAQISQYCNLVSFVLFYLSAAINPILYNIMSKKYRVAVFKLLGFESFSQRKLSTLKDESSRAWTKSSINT
Experiment: In vivo GH release in rat after i.v. peptide (serum GH by RIA)
Settings: Table 3; peptide alone 100 μg i.v.
Where no end group is shown, it is not given here. [ ]: non-standard residue; d: D form. d2Nal = N[C@H](Cc1ccc2ccccc2c1)C(=O)O
Threshold check on Unstimulated Basal GH release: at or above 600 ng/mL gives Fulfilled, strictly below gives Not fulfilled.

INSERT INTO results (substance, label_class) VALUES
  ('DAla-DβNal-Ala-Ala-DAla-Lys-NH2 [6-DAla-DβNal-Ala-Ala-DAla-Lys-NH2]', 'Not fulfilled'),
  ('DcyclohexylAla-Ala-Phe-DTrp-Lys-NH2 [3-DcyclohexylAla-Ala-Phe-DTrp-Lys-NH2]', 'Not fulfilled'),
  ('[dA][d2Nal]AT[dT]K-NH2 [4-DAla-DβNal-Ala-Thr-DThr-Lys-NH2]', 'Not fulfilled'),
  ('DcyclohexylAla-Ala-Trp-DPhe-NH2 [5-DcyclohexylAla-Ala-Trp-DPhe-NH2]', 'Fulfilled'),
  ('DAla-DcyclohexylAla-Ala-Phe-DPhe-Nle-NH2', 'Fulfilled'),
  ('[d2Nal]AW[dF]L-NH2 [7-DβNal-Ala-Trp-DPhe-Leu-NH2]', 'Fulfilled');

----------
Target: Ghrelin/GHRP/GHS Receptor (Rattus norvegicus)
Assay: GH release from cell culture of pituitary cells
Assay type: cell-based
Design: After dispersion, the cells were collected by centrifugation, wash with DMEM and placed into culture well; endogenous in cells; host or cells: dispersed primary rat pituitary cells, 4 days in culture
Settings: Table 10; compound 30 μg/ml + stimulator 1 ng/ml
Protocol: In vitro GH Release-Female rats of the CD-1 strain were housed in a constant temperature room at 24° C. with 14 h light and 10 h darkness. The rats were fed Purina Rat chow and water at libitum. All studies were started between 0800-1000 hours. Pituitaries of mature female Sprague Dawley rats were rapidly removed after decapitation, neurointermediate lobe discarded and then placed in a pH 7.4 buffer. […]
Parameter Stimulated GH release (P + S): see the listing below.
measured.endpoint: Stimulated GH release (P + S) (ng/mL)

INSERT INTO measurements (compound, test_system, measured_endpoint, value) VALUES
  ('N[C@H](Cc1c[nH]c2ccccc12)C(=O)N1CCC(c2ccccc2)CC1 [1-DTrp-4-phenylpiperdinamide, DTrp-4-phenylpiperdinamide]', 'Ghrelin/GHRP/GHS Receptor (Rattus norvegicus)', 'Stimulated GH release (P + S)', 486),
  ('COc1ccccc1N1CCN(C(=O)c2cc3ccccc3cc2C(=O)N2CCN(c3ccccc3OC)CC2)CC1', 'Ghrelin/GHRP/GHS Receptor (Rattus norvegicus)', 'Stimulated GH release (P + S)', 309),
  ('N[C@H](COCc1ccccc1)C(=O)N1CCN(c2ccccc2)CC1 [6-D Ser(BZL)-N′-phenyl-N-piperazinamide, D Ser(BZL)-N′-phenyl-N-piperazinamide]', 'Ghrelin/GHRP/GHS Receptor (Rattus norvegicus)', 'Stimulated GH release (P + S)', 435),
  ('C=C(C)CON=C(c1ccccc1)c1ccccc1', 'Ghrelin/GHRP/GHS Receptor (Rattus norvegicus)', 'Stimulated GH release (P + S)', 699),
  ('CC(C)(N)C(=O)N[C@H](COCc1ccccc1)C(=O)N1CCN(c2ccccc2)CC1 [αAibDSer(BZL)-N′-phenyl-N-piperazinamide]', 'Ghrelin/GHRP/GHS Receptor (Rattus norvegicus)', 'Stimulated GH release (P + S)', 510);

Attribution: patent US9315546B2
